- assay info: Acute toxicity test, oral administration
- details: mouse, in vivo, male ICR mice, 5 weeks in age, n = 3, orally administered as aqueous solution in distilled water, read-out: LDso value
Counter-ions that a name gives are not always drawn.
quantity measured: LD50

>  <compound>
C[C@H](N)C(=O)O[C@@H](C(=O)N[C@@H]1C(=O)N2C(C(=O)OCOC(=O)C(C)(C)C)=C(CSc3ncns3)CS[C@H]12)c1ccccc1 [Example 3, hydrochloride]

>  <readout value>
< 5000 mg/kg

$$$$
